All values here come from paper PMC9570017.

# SYSTEM_TESTED: human PCNA (Homo sapiens, UniProt P12004)
# Construct: His6 (C); made in house; host or cells: E. coli Codon Plus BL21(DE3) pLysS
# Sequence (P12004 whole entry): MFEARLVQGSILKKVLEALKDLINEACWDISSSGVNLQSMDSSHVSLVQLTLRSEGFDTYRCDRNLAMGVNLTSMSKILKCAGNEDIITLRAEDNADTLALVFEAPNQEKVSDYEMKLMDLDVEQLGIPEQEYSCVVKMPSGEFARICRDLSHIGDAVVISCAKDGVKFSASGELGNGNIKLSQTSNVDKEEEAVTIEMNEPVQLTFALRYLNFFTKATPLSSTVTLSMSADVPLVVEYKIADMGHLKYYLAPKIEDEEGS
# ASSAY_METHOD_TEXT: Isothermal titration calorimetry (ITC), PIP peptide titrated into wild-type PCNA
# Assay type: binding
# CONDITION_NOTES: ITC at 296 K, 10 mM Na-phosphate (pH 7.0), 10 mM NaCl; one binding site per PCNA monomer; PIP 200 to 500 μM in syringe, PCNA 20 to 50 μM monomer
READOUT_LABEL: Kd (µM)
Kindly answer with a numeric value in µM, unit omitted.

Report Kd, nothing else, for this sequence: KAEITRFF [CAF-1 PIP wild type, wild-type p150 PIP expressed as GST fusion with C-terminal tyrosine, TEV-cleaved and purified, used for ITC]
24
